The values you see were collected from patent US11465972B2.

PROCEDURE TEXT: Liver microsomal stability, human
Format: in vitro ADME
CONDITION LABEL: human liver microsomes
Protocol: Metabolic stability or clearance is recognized as one of the main determinants of drug concentration in blood. The metabolic stability of Mol-5 was tested using liver microsomes form mice and humans to obtain stability ranking and intrinsic clearance.
MEASUREMENT KIND: half-life (min)

>>> observed_measurement("Cc1cc(C)n(CC(O)COc2ccccc2)n1 (stereo not shown) [Mol-5]")
55.3

----------
PROCEDURE TEXT: Liver microsomal stability, human
Format: in vitro ADME
CONDITION LABEL: human liver microsomes
MEASUREMENT KIND: microsomal CLint

>>> observed_measurement("Cc1cc(C)n(CC(O)COc2ccccc2)n1 (stereo not shown)")
"25.1 µL/min/mg"

----------
PROCEDURE TEXT: Liver microsomal stability, mouse
Type: in vitro ADME
CONDITION LABEL: mouse liver microsomes
MEASUREMENT KIND: half-life (min)

>>> observed_measurement("Cc1cc(C)n(CC(O)COc2ccccc2)n1 (stereo not shown) [Mol-5]")
1.7
